These data points were gathered from PubChem BioAssay (NCI).

# Test system: TK-10 renal
# assay-summary: NCI tumour cell line growth inhibition, 48 h
observed-property: TGI

>>> endpoint_value("C=CCc1c(O)c2c(c3oc(=O)cc(C)c13)CC(C)O2 (configuration not stated)")
"> 100 µM"
>>> endpoint_value("Cc1ccc(SC2c3ccc(C)cc3Oc3nc(N)c(C#N)c(N)c32)cc1 (configuration not stated)")
"3.39 µM"
>>> endpoint_value("CCOC(=O)C(C#N)C1=CC(=O)C(=O)c2ccc(OC)cc21 (configuration not stated)")
"> 100 µM"
>>> endpoint_value("Cc1c2n(c(=O)[nH]c1=O)C1OC(CO)C(O2)C1O (configuration not stated)")
"> 100 µM"
>>> endpoint_value("O=C1/C(=C/c2ccc(Br)s2)NC(=S)N1c1ccccc1")
"> 100 µM"
>>> endpoint_value("Cc1ccc(S(=O)(=O)N(C=O)N=C2CCN(Cc3ccccc3)CC2)cc1")
"> 100 µM"
>>> endpoint_value("O=C(O)C(O)C(O)C(O)C(O)c1nc2ccccc2s1 (configuration not stated)")
"29.3 µM"
>>> endpoint_value("CC1(C)/C(=N\\NC(N)=O)C2CCC1C2 (configuration not stated)")
"> 100 µM"
>>> endpoint_value("COc1cccc(CCNC(=O)Cc2ccccc2CCO)c1")
"> 100 µM"
>>> endpoint_value("Cc1c(C)c2c(c(N)c1C#N)C(=O)N(NC(=O)c1ccccc1)C2=O")
"> 100 µM"
>>> endpoint_value("O=C1c2cccc3c2C(=O)c2c(cccc21)OCCOCCOCCOCCO3")
"> 100 µM"
>>> endpoint_value("N#Cc1c(NC(=O)NCc2ccccc2)sc2c1CCCCC2")
"> 100 µM"
>>> endpoint_value("OC(CC1SCCCS1)c1ccccc1 (configuration not stated)")
"> 100 µM"
>>> endpoint_value("Cc1ccc(S(=O)(=O)c2[nH]cc(/C(=C\\C3CCCCC3)[N+](=O)[O-])c2C2CCCCC2)cc1")
"2.08 µM"
>>> endpoint_value("Cc1ccc2c(c1)C(=S)N1CSCC1c1nncn1-2 (configuration not stated)")
"> 100 µM"
>>> endpoint_value("CCOC(=O)CCC(NC(=O)Cc1ccc(Nc2nc3cc(F)c(F)cc3nc2C(=O)OCC)cc1)C(=O)OCC (configuration not stated)")
"> 100 µM"
>>> endpoint_value("C[C@H]1[C@H]2[C@H]3CC[C@@H]4[C@@]5(C)CC[C@H](O)C(C)(C)[C@@H]5CC[C@@]4(C)[C@]3(C)C[C@H](O)[C@@]2(C)C[C@H]2O[C@]21C")
"41.5 µM"
